Test: qHTS for Hypoxia signaling pathway (HIF-1) agonists against the NCATS CANVASS Library (AID 1347375); on activation: 0% is about no effect
Details: HRE-bla ME-180 cells, HIF-1 beta-lactamase reporter, 17 h; series mostly up to 38.3 µM
Results filed as inconclusive are left out. Activity calls are given as the source filed them. The call rests on the fitted dose curve; in most records, active means well fitted activation curve with a large enough effect; inconclusive means small, poorly fitted or top-dose-only effect; inactive means flat fitted curve, though single readings scatter.
Labels: active, inactive

>  <compound>
CC(=O)[C@@H]1[C@@H](O)C[C@H]2[C@]3(C)CC[C@H]4C(C)(C)CCC[C@]4(CO)[C@H]3C[C@H]3OC(=O)[C@@H]1[C@@]32C

>  <category>
inactive

$$$$
>  <compound>
CN1CC[C@]2(c3cccc4c3N[C@@H]3N(C)CC[C@]43[C@@]34CCN(C)[C@@H]3Nc3c([C@]56CCN(C)[C@H]5Nc5ccccc56)cccc34)c3ccccc3N[C@H]12

>  <category>
active

$$$$
>  <compound>
O=C(O)CC1OC(=O)c2c(O)cccc21 (stereo not drawn)

>  <category>
inactive

$$$$
>  <compound>
C=C(C)CC[C@H](Cc1c(O)cc(O)c2c1O[C@H](c1ccc(O)cc1O)CC2=O)C(=C)C

>  <category>
inactive

$$$$
>  <compound>
C[C@@H]1O[C@@H](O[C@@H]2[C@@H](O)[C@H](O[C@@H]3[C@@H](O)[C@@H](O)C(O[C@H]4[C@H](OC(=O)[C@]56CCC(C)(C)C[C@H]5C5=CCC7[C@@]8(C)C[C@H](O)[C@H](O[C@@H]9C[C@H](CO)[C@@H](O)[C@H](O)[C@H]9O)[C@@](C)(CO)C8[C@H](O)C[C@@]7(C)[C@]5(C)CC6)OC[C@H](O)[C@@H]4O)O[C@H]3C)OC[C@H]2O)[C@H](O)[C@H](O)[C@H]1O (stereo partly drawn)

>  <category>
inactive

$$$$
>  <compound>
CC1(C)CCC[C@]2(C)[C@@H]1CC[C@@]13C[C@@H](CC[C@H]12)C(C)(O)C3 (stereo partly drawn)

>  <category>
inactive

$$$$
>  <compound>
CC(=O)NC[C@@H]1O[C@H](CC/C=C(C)/C(C)=C/C=O)[C@H](C)C[C@H]1O

>  <category>
inactive

$$$$
>  <compound>
O=Cc1ccc2n1C[C@@]1(C[C@H](O)[C@@H](CO)O1)OC2

>  <category>
inactive

$$$$

###

Assay: KB-8-5-11 Cancer Cell Toxicity qHTS against the NCATS CANVASS Library (AID 1347364); further: nearly all actives have a fitted effect of over 75% in size
Details: KB-8-5-11 MDR cells viability, CellTiter-Glo, 72 h; series mostly up to 46.1 µM
Results filed as inconclusive are left out. Active and inactive are the calls of the source. Calls come from the whole dose curve; as a rule, active = well fitted cell-killing curve with a large enough effect; inconclusive = small, poorly fitted or top-dose-only effect; inactive = flat fitted curve, though single readings scatter.
Possible outcomes: 1.0 (active), 0.0 (inactive)

>  <molecule>
CO[C@@H]1[C@H](O)[C@@H](C)O[C@@H](OC[C@H]2/C=C/C=C/C(=O)C(C)C[C@H](C)C(O[C@@H]3O[C@H](C)CC4(OC(=O)O[C@@H]4C)C3O)[C@@H](C)/C=C/C(=O)OC2C)[C@@H]1OC (stereo partly specified)

>  <category>
0.0

$$$$
>  <molecule>
CC1(C)[C@H](Br)CC[C@]23C[C@]4(C)C(=O)CC12C[C@H]34

>  <category>
0.0

$$$$
>  <molecule>
O=Cc1ccc2n1C[C@@]1(OC2)O[C@H](CO)[C@@H](O)[C@@H]1O

>  <category>
0.0

$$$$
>  <molecule>
C/C(=C\[C@H](C)C(=O)CCCC1CC(=O)NC(=O)C1)C(O)[C@@H](C)[C@H](O)C/C=C/CC/C=C/C(=O)O (stereo partly specified)

>  <category>
0.0

$$$$
>  <molecule>
C[C@]12CC[C@]3(C1)[C@H](CC2=O)CC(OC(=O)c1ccccc1)[C@H]1[C@@](CO)(C(=O)O)CCC[C@@]13C (stereo partly specified)

>  <category>
0.0

$$$$
>  <molecule>
COC1C(O)C(OC(N)=O)C(Oc2ccc3c(O)c(NC(=O)c4ccc(O)c(CC=C(C)C)c4)c(=O)oc3c2C)OC1(C)C (stereo unspecified)

>  <category>
0.0

$$$$
>  <molecule>
C[C@H]1C[C@@H]([C@@H]2CC[C@]34O[C@H](CC[C@@]35C[C@H](C)C(=O)O5)CN24)OC1=O

>  <category>
0.0

$$$$
>  <molecule>
C1=C2CCCN[C@@H]2[C@@H]2CCN3CCCC[C@@H]3[C@H](C1)C2

>  <category>
0.0

$$$$
>  <molecule>
O=C(OC1Cc2c(O)cc(O)cc2OC1c1cc(O)c(O)c(O)c1)c1cc(O)c(O)c(O)c1 (stereo unspecified)

>  <category>
0.0

$$$$
>  <molecule>
CCC[C@@H](C)/C=C(\C)[C@H](O)[C@H](C)/C=C/CC[C@@H](O)[C@H](C)[C@H](O)[C@H](C)[C@H](O)[C@H](C)[C@H]1O[C@H]([C@H](C)C(=O)O)CC[C@@H]1C

>  <category>
1.0

$$$$
>  <molecule>
O=C1CC(c2cc(O)cc(O)c2)Oc2cc(O)ccc21 (stereo unspecified)

>  <category>
0.0

$$$$
>  <molecule>
O=C(O)CC1OC(=O)c2c(O)cccc21 (stereo unspecified)

>  <category>
0.0

$$$$
>  <molecule>
CN1C(=O)[C@]23SS[C@@]1(C)C(=O)N2[C@H]1Nc2ccccc2[C@]1(c1c[nH]c2ccccc12)[C@@H]3O

>  <category>
1.0

$$$$
>  <molecule>
Oc1ccc(C2c3c(O)cc(O)cc3[C@@H]3C(c4ccc(O)cc4)c4c(O)cc(O)cc4[C@H]23)cc1 (stereo partly specified)

>  <category>
0.0

$$$$
>  <molecule>
O=C1C[C@@H](c2ccc(O)c(-c3c(O)cc(O)c4c3O[C@H](c3ccc(O)cc3)CC4=O)c2)Oc2cc(O)cc(O)c21

>  <category>
0.0

$$$$
>  <molecule>
CNc1ccc(Cl)cc1C(=O)OC[C@]1(C)[C@H]2CC[C@]3(C)[C@@H](C[C@@H](OC)[C@H](C)[C@H]3C3=C(O)C(=O)OC3O)[C@]2(C)CC[C@H]1O (stereo partly specified)

>  <category>
0.0

$$$$
